Entries with reported pIC50 on Cytochrome P450 2C9 (Homo sapiens, UniProt P11712)
Sequence (P11712 whole entry): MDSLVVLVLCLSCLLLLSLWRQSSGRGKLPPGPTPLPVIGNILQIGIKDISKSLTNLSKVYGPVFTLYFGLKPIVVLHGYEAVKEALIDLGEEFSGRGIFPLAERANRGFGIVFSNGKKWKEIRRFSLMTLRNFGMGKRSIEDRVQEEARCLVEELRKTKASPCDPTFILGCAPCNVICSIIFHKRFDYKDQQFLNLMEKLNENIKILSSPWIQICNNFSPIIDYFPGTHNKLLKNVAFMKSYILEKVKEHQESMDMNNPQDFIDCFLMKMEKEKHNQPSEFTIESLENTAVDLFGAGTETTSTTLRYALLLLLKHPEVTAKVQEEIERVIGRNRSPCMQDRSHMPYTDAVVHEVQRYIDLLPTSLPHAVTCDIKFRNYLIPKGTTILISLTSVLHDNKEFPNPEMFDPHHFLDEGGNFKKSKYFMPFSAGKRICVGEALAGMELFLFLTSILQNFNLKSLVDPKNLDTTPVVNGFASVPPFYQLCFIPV
Answers are plain numbers, as −log10 of the molar value.

Use these answered entries as a reference point.
CC(=O)c1ccc(C2NCc3ccc(Cl)cc3-n3cccc32)cc1 (stereo not shown) [drawing 101]; 5.20
Br.CC(=O)c1ccc(C2NCc3c(Cl)cccc3-n3cccc32)cc1 (stereo not shown) [drawing 96]; 5.60

List pIC50 for every entry below, keeping the order given.
1. CC(=O)c1cccc(C2NCc3c(Cl)cccc3-n3cccc32)c1 (stereo not shown) [drawing 99]
2. Br.CCc1ccc(C2NCc3c(Cl)cccc3-n3cccc32)cc1 (stereo not shown)
3. CCc1cccc(C2NCc3c(Cl)cccc3-n3cccc32)c1 (stereo not shown)
4. CC(=O)c1ccc(C2NCc3c(Cl)cccc3-n3cccc32)cc1 (stereo not shown) [drawing 94]

[5.80, 5.10, 5.20, 5.50]

* * *

- measured-target: Cytochrome P450 2C8 (Homo sapiens, UniProt P10632)
- Construct: tissue BD Gentest; host or cells: human liver microsomes
- Sequence (P10632 whole entry): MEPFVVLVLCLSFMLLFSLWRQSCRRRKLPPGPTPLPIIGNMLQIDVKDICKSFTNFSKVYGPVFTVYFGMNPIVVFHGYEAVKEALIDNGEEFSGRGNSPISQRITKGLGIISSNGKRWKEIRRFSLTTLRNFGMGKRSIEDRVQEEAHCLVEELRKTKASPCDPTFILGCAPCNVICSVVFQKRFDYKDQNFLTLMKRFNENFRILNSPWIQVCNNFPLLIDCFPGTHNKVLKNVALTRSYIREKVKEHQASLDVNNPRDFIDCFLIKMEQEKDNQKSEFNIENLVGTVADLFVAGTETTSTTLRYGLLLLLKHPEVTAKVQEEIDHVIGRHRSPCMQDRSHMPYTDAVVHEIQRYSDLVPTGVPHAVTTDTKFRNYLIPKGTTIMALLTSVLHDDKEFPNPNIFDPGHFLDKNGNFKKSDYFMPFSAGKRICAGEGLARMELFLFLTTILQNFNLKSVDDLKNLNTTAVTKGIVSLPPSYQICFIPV
- experiment: Human liver microsomal cytochrome P450 cocktail inhibition assay, Protocol C
- Format: in vitro ADME
- details: human liver microsomes 0.2 mg/ml; probe amodiaquine 2 microM; read-out: 2C8_Amod pIC50 (converted)
- Procedure: Probe substrates and final assay concentrations with the appropriate internal standard are outlined in Table 6a. […] Percentage inhibition data are plotted against the Log transformed test compound concentration and after curve fitting the IC50-value is determined.
parameter: IC50

Use these answered entries as a reference point.
CC(=O)c1ccc(C2=NCc3c(Cl)cccc3-n3cccc32)cc1 [drawing 91]; > 10 µM
CC(=O)c1cccc(C2NCc3c(Cl)cccc3-n3cccc32)c1 (centres unmarked) [drawing 99]; 7.94 µM
CCc1ccc(C2NCc3ccc(Cl)cc3-n3cccc32)cc1 (centres unmarked); > 10 µM
CCc1ccc(C2NCc3c(Cl)cccc3-n3cccc32)cc1 (centres unmarked); > 10 µM

Here's the next entry for you.
State the measured IC50 (Cytochrome P450 2C8 (Homo sapiens, UniProt P10632)) of CCc1ccc(C2=NCc3c(Cl)cccc3-n3cccc32)cc1 [drawing 92]
> 10 µM

* * *

- experiment: Liver metabolic stability assay, gpLM
- Assay type: in vitro ADME, guinea pig
- details: guinea pig microsomes, 1 mg protein/ml, 5 μM test compound, 15 min, 37 °C
parameter: %-compound metabolised Met_gpLM (%)
Answers are plain numbers, in %.

Use these answered entries as a reference point.
CC(=O)c1ccc(C2=NCc3c(Cl)cc(Cl)cc3-n3cccc32)cc1; 73
CC(=O)c1cc(C2=NCc3c(Cl)cccc3-n3cccc32)ccc1F; 80
CC(=O)c1ccc(C2=NCc3c(F)cc(F)cc3-n3cccc32)cc1; 53

Here's the next entry for you.
Return reported %-compound metabolised Met_gpLM. Input compound: CC(=O)c1ccc(C2=NCc3cc(Cl)cc(Cl)c3-n3cccc32)cc1
44

* * *

Assign melting point to each entry below.

List melting point for every entry below, keeping the order given.
1. CC(=O)c1ccc(C2=NCc3c(Cl)cccc3-n3cccc32)cc1
2. CC(=O)c1ccc(C2=NCc3c(F)cccc3-n3cccc32)cc1

252.3 to 252.6 °C
215.2 to 216 °C

List melting point for every entry below, keeping the order given.
1. CC(=O)c1ccc(C2=NCc3cc(Cl)cc(Cl)c3-n3cccc32)cc1
2. CC(=O)c1ccc(C2=NCc3c(F)cc(F)cc3-n3cccc32)cc1
3. CC(=O)c1ccc(C2=NCc3cccc(Cl)c3-n3cccc32)cc1

1: 183.6 to 186.7 °C; 2: 226.9 to 230 °C; 3: 171.4 to 171.8 °C
